From: paper PMC11843613

# assay.text: Rat CNS penetration (brain:plasma)
# Type: in vivo
# test.context: male, Sprague-Dawley, rat, brain/plasma, intraperitoneal, 10 mg/kg
quantity.measured: Kp uu at 0.25 h
Simply state the number, no unit and no words.

Solved cases (2 shown):
structure | Kp uu at 0.25 h
Cc1nc(C2CC2)ccc1CNC(=O)c1cc(-n2cccn2)ccc1Cl | 1.2
Cn1nc(-c2ccnn2C)cc1CNC(=O)c1cc(-n2cccn2)ccc1Cl | 0.52

Prompt: State the recorded Kp uu at 0.25 h for this entry: Cn1cc(-c2cc(CNC(=O)c3cc(-c4ccco4)ccc3Cl)n(C)n2)cn1
Response: 0.98

---

# assay.text: Rat IV/PO pharmacokinetics
# Type: in vivo
# test.context: rat, plasma, iv, rat IV; read-out: Vss
quantity.measured: Vd (L/kg)
Dear colleague, please return just the value in L/kg, with no unit written.

structure | Vd, L/kg
Cc1nc2c(F)cccc2cc1CNC(=O)c1cc(-n2cccn2)ccc1Cl | 1

Prompt: I'd like to know its Vd. The molecule in question is Cc1nc(C2CC2)ccc1CNC(=O)c1cc(-n2cccn2)ccc1Cl
Response: 5.1

Prompt: // same read-out, input: Cn1nc(-c2ccnn2C)cc1CNC(=O)c1cc(-n2cccn2)ccc1Cl
Response: 0.63

Prompt: Next molecule: Cc1nc2ccccc2cc1CNC(=O)c1cc(-n2cccn2)ccc1Cl
Response: 1.64

---

# assay.text: Rat CNS penetration (brain:plasma)
# Type: in vivo
# test.context: male, Sprague-Dawley, brain and plasma, intraperitoneal, 10 mg/kg; rat brain:plasma
# Protocol: In vivo DMPK experimental […] In vivo samples were analyzed via electrospray ionization (ESI) on an AB Sciex API-5500 QTrap (Foster City, CA) instrument that was coupled with Shimadzu LC-20AD pumps (Columbia, MD) and a Leap Technologies CTC PAL auto-sampler (Carrboro, NC). […] mode (5.0 kV spray voltage). […] All data were analyzed using AB Sciex Analyst software v1.5.1. […]
Below, each entry is listed alongside its reported Kp at 0.25 h.
Output: the number by itself.

Reference set, count: 3
structure | observed.measurement
Cn1cc(-c2cc(CNC(=O)c3cc(-c4ccco4)ccc3Cl)n(C)n2)cn1 | 0.89
Cc1nc(C2CC2)ccc1CNC(=O)c1cc(-n2cccn2)ccc1Cl | 1.8
Cc1nc2c(F)cccc2cc1CNC(=O)c1cc(-n2cccn2)ccc1Cl | 0.98

Turning to the following molecule.
Prompt: Dear colleague, I am looking for the recorded Kp at 0.25 h of the following molecule: Cn1nc(-c2ccnn2C)cc1CNC(=O)c1cc(-n2cccn2)ccc1Cl
Response: 0.3

---

# assay.text: Solubility in FASSGF and FASSIF
# Format: physicochemical
# test.context: FASSGF, fassgf or other biorelevant; read-out: Solubility FASSGF
quantity.measured: solubility (µg/mL)
Entry rule: numbers only, all in µg/mL.

Prompt: solubility for Cc1nc(C2CC2)ccc1CNC(=O)c1cc(-n2cccn2)ccc1Cl [compound 8] ?
Response: 572

---

# assay.text: Rat IV/PO pharmacokinetics
# Format: in vivo
# test.context: plasma; rat IV; read-out: CLp
quantity.measured: clearance

molecule | clearance
Cc1nc2c(F)cccc2cc1CNC(=O)c1cc(-n2cccn2)ccc1Cl [compound 7] | 8 mL/min/kg
Cn1nc(-c2ccnn2C)cc1CNC(=O)c1cc(-n2cccn2)ccc1Cl [compound 5] | 2.9 mL/min/kg
Cc1nc(C2CC2)ccc1CNC(=O)c1cc(-n2cccn2)ccc1Cl [compound 8] | 26.4 mL/min/kg

Okay, next one:
Prompt: // query clearance value for entry Cc1nc2ccccc2cc1CNC(=O)c1cc(-n2cccn2)ccc1Cl [compound 6]
Response: 15.3 mL/min/kg

---

# assay.text: Single IV bolus PK and tolerability in male beagle dogs
# Format: in vivo
# test.context: plasma; male beagle dog, 0.5 mg/kg IV bolus; read-out: CLp (dog)
quantity.measured: clearance (mL/min/kg)
Kindly provide the numeric value in mL/min/kg only, without the unit symbol.

Prompt: Please give the measured clearance for this molecule: Cc1nc(C2CC2)ccc1CNC(=O)c1cc(-n2cccn2)ccc1Cl
Response: 10
